Where these numbers come from: the supplement of paper PMC11451515

- System: P12-Ichikawa
- methodNotes: cell viability relative to DMSO control; higher = less cytotoxic
- reportedConditions: HPLM + 10% dialyzed FBS; 48 h; 5.12 µM
Reported cell viability values for a set of compounds

{"compound": "Nc1n[nH]c2nnc(-c3c(-c4ccccc4)nn4ccccc34)cc12", "assayTarget": "P12-Ichikawa", "cell viability, %": 90}
{"compound": "C[C@]12CCC3c4ccc(O)cc4CCC3C1CCC2=O (stereo partly drawn)", "assayTarget": "P12-Ichikawa", "cell viability, %": 90.2}
{"compound": "CC1(C)SCCN([S+](=O)([O-])c2ccc(OCC#CCO)cc2)[C@H]1C(=O)NO", "assayTarget": "P12-Ichikawa", "cell viability, %": 91.2}

====

Reported cell viability values for a set of compounds
- System: SEM cells
- methodNotes: cell viability relative to DMSO control; higher = less cytotoxic
- reportedConditions: RPMI 5 mM glucose + 10% FBS; 48 h; 0.0632 µM

{"compound": "Cc1ccc(Nc2cc(-c3cccc(N4C(=O)c5ccccc5C4=O)c3)ncn2)cc1N[S+](C)(=O)[O-]", "cell viability, %": 128}
{"compound": "CCC(C)CCCCC(=O)N[C@@H](CCN)C(=O)NC(C(=O)N[C@H](CCN)C(=O)N[C@@H]1CCNC(=O)C([C@@H](C)O)NC(=O)[C@@H](CCN)NC(=O)[C@@H](CCN)NC(=O)[C@@H](CC(C)C)NC(=O)[C@H](Cc2ccccc2)NC(=O)[C@H](CCN)NC1=O)[C@@H](C)O (stereo partly drawn)", "cell viability, %": 107}
{"compound": "C[C@H](CCC(=O)O)[C@H]1CC[C@H]2[C@@H]3[C@H](O)C[C@@H]4C[C@H](O)CC[C@]4(C)[C@H]3CC[C@]12C", "cell viability, %": 87.6}
{"compound": "CCC(CCCC)COC(=O)C(\\C#N)=C(\\c1ccccc1)c2ccccc2 (stereo not drawn)", "cell viability, %": 94.1}
{"compound": "Cc1cc(Nc2ncc3c(n2)N(C)C(=O)N(c2cc(NC(=O)c4cccc(C(F)(F)F)c4)ccc2C)C3)n(C)n1", "cell viability, %": 116}
{"compound": "CNc1nc(-c2ccc3c(N)n[nH]c3c2)cc(N2C[C@@H](C(=O)NC3CCCCC3)CC[C@H]2C)n1", "cell viability, %": 88.8}
{"compound": "Cc1ccc([C@@H]2O[C@H](CO)[C@@H](O)[C@H](O)[C@H]2O)cc1Cc1ccc(-c2ccc(F)cc2)s1", "cell viability, %": 114}
{"compound": "COc1ccc(/C=C\\c2cc(OC)c(OC)c(OC)c2)cc1NC(=O)[C@H](N)CO", "cell viability, %": 15}

====

- Test system: P12-Ichikawa
- methodNotes: cell viability relative to DMSO control; higher = less cytotoxic
- reportedConditions: RPMI 5 mM glucose + 10% dialyzed FBS; 48 h; 0.0211 µM

{"compound": "CC(=O)SC[C@@H](C)C(=O)N1CCC[C@H]1C(=O)N[C@@H](Cc1ccccc1)C(=O)O", "cell viability / %": 101}
{"compound": "C[C@]12CCC3c4ccc(O)cc4CCC3C1CCC2=O (stereo partly specified)", "cell viability / %": 87}
{"compound": "COc1ccccc1[C@H](c1cccc2ccccc12)[C@@](C)(C#N)C(=O)N1CCC(c2cccc(C(F)(F)F)c2)CC1", "cell viability / %": 112}
{"compound": "C[C@H](NC(=O)Cc1cc(F)cc(F)c1)C(=O)N[C@H](C(=O)OC(C)(C)C)c1ccccc1", "cell viability / %": 79.7}
{"compound": "CC(=O)N(C)C1(c2ccccc2)CCN(CCC[C@]2(c3ccc(Cl)c(Cl)c3)CCCN(C(=O)c3ccccc3)C2)CC1", "cell viability / %": 112}
{"compound": "CC(C)(N)c1ccc(-c2nc3ccccc3nc2-c2ccccc2)cc1", "cell viability / %": 114}
